- Test system: MCF-7
- Method notes: Cytotoxicity assay (SRB), MCF-7
- Format: cell-based
- Settings: Homo sapiens, MCF7, 72 h, MCF-7 cells, 3 days, SRB; read-out: In Vitro Cellular Activity IC50 MCF-7
What IC50 was measured for each of the following?
Number in µM, nothing else.

Kindly state the measured IC50 obtained for O=C1NC(=O)c2ccc(I)cc2/C1=C/Nc1ccc(N2CCN(CCO)CC2)cc1 with MCF-7.
5.1

Kindly state the measured IC50 obtained for COC1CCN(Cc2ccc(N/C=C3\C(=O)NC(=O)c4ccc(I)cc43)cc2)CC1 with MCF-7.
2.6

Kindly state the measured IC50 obtained for CC1CCCN1Cc1ccc(NC=C2C(=O)NC(=O)c3ccccc32)cc1 (centres unmarked) with MCF-7.
11.2

Kindly state the measured IC50 obtained for Cc1ccc(-c2ccc3c(c2)C(=CNCc2ccc(O)c(O)c2)C(=O)NC3=O)cc1 with MCF-7.
12.7

Kindly state the measured IC50 obtained for O=C1NC(=O)c2ccc(-c3ccsc3)cc2/C1=C/Nc1ccc(C2CC=CCN2)cc1 (centres unmarked) with MCF-7.
7.3

Kindly state the measured IC50 obtained for O=C1NC(=O)c2ccc(-c3ccsc3)cc2/C1=C/Nc1ccc(N2CCC(N3CCCC3)CC2)c(F)c1 with MCF-7.
3.4

Kindly state the measured IC50 obtained for CN(C)c1ccc(-c2ccc3c(c2)C(=CNCc2ccc(O)c(O)c2)C(=O)NC3=O)cc1 with MCF-7.
10.1

====

- Method notes: I.V. and P.O. Dosing in Mice
- Type: in vivo
- Settings: dose i.v. 2 mg/kg
Binarize Cl_obs at 2 L/h/kg; below is t, at or above is f.

Is Cl_obs of CCCOc1cnc(CNC=C2C(=O)NC(=O)c3ccc(I)cc32)cc1O [Example 364] strictly below 2 L/h/kg?
t

Is Cl_obs of O=C1NC(=O)c2ccc(I)cc2/C1=C/NCc1ccc(-c2ccoc2)c(O)c1 [Example 506] strictly below 2 L/h/kg?
f

Is Cl_obs of O=C1NC(=O)c2ccc(I)cc2/C1=C/NCc1ccn(-c2ccccc2)c(=O)c1 [Example 517] strictly below 2 L/h/kg?
t

Is Cl_obs of CN1CCN(c2ccc(N/C=C3\C(=O)NC(=O)c4ccc(-c5ccsc5)cc43)cc2)CC1 [Example 107] strictly below 2 L/h/kg?
f

Is Cl_obs of CC(C)(C)c1ccc2c(c1)/C(=C/NCc1cc(O)c(-c3ccccc3)cn1)C(=O)NC2=O [Example 531] strictly below 2 L/h/kg?
t

Is Cl_obs of CCCOc1cnc(CN/C=C2\C(=O)NC(=O)c3ccc(C(C)(C)C)cc32)cc1O [Example 530] strictly below 2 L/h/kg?
t

Is Cl_obs of CC(C)(C)c1ccc2c(c1)/C(=C/NCc1ccc(-c3ccoc3)c(O)c1)C(=O)NC2=O [Example 535] strictly below 2 L/h/kg?
f

Is Cl_obs of O=C1NC(=O)c2ccc(I)cc2/C1=C/NCc1ccn(-c2ccsc2)c(=O)c1 [Example 539] strictly below 2 L/h/kg?
t

Is Cl_obs of CCCOc1cnc(CN/C=C2\C(=O)NC(=O)c3ccc(C4CCCC4)cc32)cc1O [Example 538] strictly below 2 L/h/kg?
t

Is Cl_obs of O=C1NC(=O)c2ccc(I)cc2/C1=C/NCc1ccn(-c2ccoc2)c(=O)c1 [Example 525] strictly below 2 L/h/kg?
t

Is Cl_obs of O=C1NC(=O)c2ccc(I)cc2/C1=C/NCc1cc(O)c(-c2ccoc2)cn1 [Example 527] strictly below 2 L/h/kg?
t

Is Cl_obs of O=C1NC(=O)c2ccc(I)cc2/C1=C/NCc1cc(O)c(-c2ccccc2)cn1 [Example 524] strictly below 2 L/h/kg?
f
